Here, each record is paired with measured IC50 data.
target: UniProtKB Q9GJT6
Sequence (Q9GJT6 whole entry): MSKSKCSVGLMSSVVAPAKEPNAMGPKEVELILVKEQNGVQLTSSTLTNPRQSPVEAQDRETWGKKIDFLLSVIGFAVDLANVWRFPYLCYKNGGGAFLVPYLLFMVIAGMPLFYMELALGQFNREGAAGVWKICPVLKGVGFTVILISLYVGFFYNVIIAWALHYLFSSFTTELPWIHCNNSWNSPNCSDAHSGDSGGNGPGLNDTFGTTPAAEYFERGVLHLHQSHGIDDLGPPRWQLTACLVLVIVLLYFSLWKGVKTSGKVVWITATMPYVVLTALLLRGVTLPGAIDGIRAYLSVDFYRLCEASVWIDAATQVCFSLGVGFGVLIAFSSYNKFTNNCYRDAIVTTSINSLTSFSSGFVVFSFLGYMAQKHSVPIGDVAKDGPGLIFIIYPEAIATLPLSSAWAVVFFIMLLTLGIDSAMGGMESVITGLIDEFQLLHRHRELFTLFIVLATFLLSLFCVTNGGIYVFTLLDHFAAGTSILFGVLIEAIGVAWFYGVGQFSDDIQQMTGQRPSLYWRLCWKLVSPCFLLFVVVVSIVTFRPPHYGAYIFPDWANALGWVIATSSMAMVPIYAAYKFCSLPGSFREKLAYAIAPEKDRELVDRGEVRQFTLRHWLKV

Consider the worked cases shown below.
| compound | IC50 |
| --- | --- |
| COC(=O)C1C(c2ccc(F)cc2)CC2CCC1N2Cc1ccccc1 (stereo not drawn) | 58.9 nM |
| COC(=O)C1C(c2ccc(F)cc2)CC2CCC1N2CCCc1ccccc1 (stereo not drawn) | 1.4 nM |

Kindly review the next compound as well.
Q: Report value: IC50, system: UniProtKB Q9GJT6, compound: COC(=O)C1C(c2ccc(F)cc2)CC2CCC1N2CCCCCc1ccccc1 (stereo not drawn)
A: 3.4 nM

---

Here, each record is paired with measured pIC50 data.
target: Sodium-dependent serotonin transporter
measurement.notes: Inhibition of [3H]- citalopram binding to serotonin transporter of Cynomolgus monkey caudate-putamen
As a rule, pIC50 stands for the negative log10 of the concentration, concentration in M.

Q: Let me know recorded pIC50 for COC(=O)C1C(c2ccc(F)cc2)CC2CCC1N2CCCCCc1ccccc1 (stereo unspecified) , thanks.
A: 7.30

Q: State, in one line, measured pIC50 of COC(=O)[C@@H]1C2CCC(C[C@@H]1OC(c1ccc(F)cc1)c1ccc(F)cc1)N2CCCc1ccccc1 (stereo partly specified)
A: 7.71

---

Species: Macaca fascicularis
measurement.notes: Relative affinity for dopamine and serotonin transporters
Listed here: items and their measured Ratio.
When you answer, write just the number.

Worked examples, 3 compounds total:
| compound | assay.metric | obs.value |
| --- | --- | --- |
| COC(=O)C1C(c2ccc(F)cc2)CC2CCC1N2Cc1ccccc1 (centres undefined) | Ratio | 18 |
| COC(=O)C1C(c2ccc(F)cc2)CC2CCC1N2CCCCCc1ccccc1 (centres undefined) | Ratio | 15 |
| COC(=O)[C@@H]1C2CCC(C[C@@H]1OC(c1ccc(F)cc1)c1ccc(F)cc1)N2CCCCCc1ccccc1 (some centres undefined) | Ratio | 6 |

Next, consider the following compound.
Q: Supply measured Ratio of COC(=O)C1C(c2ccc(F)cc2)CC2CCC1N2CCCc1ccccc1 (centres undefined) in your reply.
A: 95

---

target: Sodium-dependent serotonin transporter
measurement.notes: Inhibition of [3H]- citalopram binding to serotonin transporter of Cynomolgus monkey caudate-putamen
assay.metric: IC50 (nM)
Please respond with the number in nM and leave the unit unwritten.

| compound | target | unit.text | IC50 |
| --- | --- | --- | --- |
| COC(=O)C1C(c2ccc(F)cc2)CC2CCC1N2CCCc1ccccc1 (centres undefined) | Sodium-dependent serotonin transporter | nM | 133 |
| COC(=O)C1C(c2ccc(F)cc2)CC2CCC1N2Cc1ccccc1 (centres undefined) | Sodium-dependent serotonin transporter | nM | 1070 |
| COC(=O)[C@@H]1C2CCC(C[C@@H]1OC(c1ccc(F)cc1)c1ccc(F)cc1)N2CCCCCc1ccccc1 (some centres undefined) | Sodium-dependent serotonin transporter | nM | 550 |

Now take the following compound into account.
Q: // Input: COC(=O)[C@@H]1C2CCC(C[C@@H]1OC(c1ccc(F)cc1)c1ccc(F)cc1)N2Cc1ccccc1 (some centres undefined) . Output its IC50 only.
A: 4970
